# Test system: Neuropilin-1 (Homo sapiens)
# Test method notes: NRP-1 b1b2 CendR peptide binding inhibitors, dose response, biochemical, FP and AlphaScreen panel (AID 651650)
# Measurement setup: NRP-1 b1b2 / RPARPAR peptide binding, FP or AlphaScreen; AlphaScreen, run 1; individual panel run IC50
Observed property: IC50

{"columns": ["Compound", "Test system", "Recorded result"],
 "data": [
  ["CC(=O)/C(=N\\Nc1ccc(Cl)cc1Cl)Sc1cccc2cccnc12", "Neuropilin-1 (Homo sapiens)", "> 100 µM"],
  ["CCCCn1nnnc1C(c1cc2ccccc2o1)N(C)Cc1ccc(Cl)c(Cl)c1 (centres undefined)", "Neuropilin-1 (Homo sapiens)", "12.7 µM"],
  ["COC(=O)n1c(=O)oc2ccccc21", "Neuropilin-1 (Homo sapiens)", "> 100 µM"],
  ["O=C(O)C1CCN(C(=O)c2ccc(Cl)cc2)CC1", "Neuropilin-1 (Homo sapiens)", "> 100 µM"],
  ["Cc1ccc2c(c1)C(c1ccncc1)=NNC(c1ccc(F)cc1)=N2", "Neuropilin-1 (Homo sapiens)", "> 100 µM"],
  ["CCOC(=O)C[C@H]1c2cc(C(F)(F)F)ccc2S(=O)(=O)N1Cc1ccccc1", "Neuropilin-1 (Homo sapiens)", "> 100 µM"],
  ["CN1CCC(=NNC(=O)c2ccco2)CC1", "Neuropilin-1 (Homo sapiens)", "> 100 µM"],
  ["CC(C)c1ccc(S(=O)(=O)N2CCN(C(=O)CN3C(=O)c4ccccc4C3=O)CC2)cc1", "Neuropilin-1 (Homo sapiens)", "> 100 µM"],
  ["CC(C)(C)C(=O)c1cnc(Nc2ccccc2)s1", "Neuropilin-1 (Homo sapiens)", "> 100 µM"],
  ["Oc1ccc(-c2nc3ncccn3c2Nc2ccc3c(c2)OCO3)cc1", "Neuropilin-1 (Homo sapiens)", "> 100 µM"],
  ["Cc1csc(NC(C)c2nc3cc(C(F)(F)F)ccc3n2CCCO)n1 (centres undefined)", "Neuropilin-1 (Homo sapiens)", "8.6 µM"],
  ["CC(=O)Nc1ccc(NC(=O)C2CC(=O)N(c3ccc(Cl)cc3)C2)cc1 (centres undefined)", "Neuropilin-1 (Homo sapiens)", "17.9 µM"],
  ["COC(=O)C1=C(c2cccc(C#N)c2)C[C@@H]2CC[C@H]1N2C(=O)NCCO", "Neuropilin-1 (Homo sapiens)", "> 100 µM"],
  ["c1ccc2c(c1)CCCN2Cc1nnnn1CC1CCCO1 (centres undefined)", "Neuropilin-1 (Homo sapiens)", "25.8 µM"],
  ["CC(=O)Nc1ccccc1OCC(=O)N(Cc1ccccc1)C(C)C", "Neuropilin-1 (Homo sapiens)", "> 100 µM"],
  ["CC(C)C(N)c1csc(NC(=O)Nc2cccc(C(F)(F)F)c2)n1 (centres undefined)", "Neuropilin-1 (Homo sapiens)", "> 100 µM"],
  ["NC(N)=NCCC[C@H](NC(=O)OCc1ccccc1)C(=O)O", "Neuropilin-1 (Homo sapiens)", "> 100 µM"],
  ["CCOc1ccccc1N1CCN(C(=O)c2ccncc2)CC1", "Neuropilin-1 (Homo sapiens)", "> 100 µM"],
  ["CCC(=O)Nc1cc2c3c(c1)CCC(=O)N3CCC2", "Neuropilin-1 (Homo sapiens)", "13.8 µM"],
  ["CC(C)NC(=O)c1c(CSc2ccccc2)noc1C(=O)NCc1ccccc1", "Neuropilin-1 (Homo sapiens)", "> 100 µM"],
  ["Cc1cc2c(=O)[nH]cnc2s1", "Neuropilin-1 (Homo sapiens)", "> 100 µM"],
  ["FC(F)(F)c1cc(C(F)(F)F)c2ccc(Oc3ccccc3)nc2n1", "Neuropilin-1 (Homo sapiens)", "> 100 µM"],
  ["Cc1onc(-c2ccc(Cl)cc2Cl)c1-c1csc(COc2ccccc2)n1", "Neuropilin-1 (Homo sapiens)", "59.1 µM"],
  ["CC(=O)Nc1ccc(Oc2cc(C#N)c(C#N)cc2N2CCOCC2)cc1", "Neuropilin-1 (Homo sapiens)", "> 100 µM"]
]}
